# System: human lung tryptase
# experiment.notes: Screening of tryptase substrates: responsiveness of fluorescent MCA substrates to tryptase
# Type: biochemical
# cond: relative value with the sensitivity of ^iBoc-Ala-Ala-Arg-MCA defined as 100; 100 μM substrate, 50 mM Tris-HCl pH 8.0, ex 365 nm / em 470 nm
The star is where a group is joined. AMC = Cc1cc(=O)oc2cc(N*)ccc12; Tos = Cc1ccc(S(=O)(=O)*)cc1
endpoint.name: Tryptase activity
Please give only the number in your answer, with no unit.

I am curious: what Tryptase activity value has been reported for ^iBoc-Lys-Ala-Arg-MCA ?
167

I am curious: what Tryptase activity value has been reported for ^iBoc-Abu-Ala-Arg-MCA ?
109

I am curious: what Tryptase activity value has been reported for Tos-Gly-Pro-Arg-{AMC} [reference compound] ?
25

I am curious: what Tryptase activity value has been reported for ^iBoc-Lys-Pro-Arg-MCA ?
175

I am curious: what Tryptase activity value has been reported for ^iBoc-Ala-Abu-Arg-MCA ?
80

I am curious: what Tryptase activity value has been reported for ^iBoc-Gly-Pro-Arg-MCA ?
9

I am curious: what Tryptase activity value has been reported for ^iBoc-Ala-Lys-Arg-MCA ?
11

I am curious: what Tryptase activity value has been reported for ^iBoc-Phe-Ser-Arg-MCA ?
11

// provenance: patent US20220364141A1
